- system-tested: Cin5 (UniProt P40917)
- Sequence: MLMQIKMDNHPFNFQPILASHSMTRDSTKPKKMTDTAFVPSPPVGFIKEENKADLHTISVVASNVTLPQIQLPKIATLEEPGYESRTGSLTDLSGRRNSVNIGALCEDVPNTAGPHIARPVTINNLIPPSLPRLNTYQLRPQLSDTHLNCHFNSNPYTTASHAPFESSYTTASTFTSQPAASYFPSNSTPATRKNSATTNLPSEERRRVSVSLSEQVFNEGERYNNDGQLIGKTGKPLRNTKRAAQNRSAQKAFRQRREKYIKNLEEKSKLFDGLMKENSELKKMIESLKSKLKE
- protocol-summary: PBM E-score (8-mer binding enrichment) (E-score (-0.5 to 0.5)); higher = stronger / more preferred TF binding
- applied-conditions: protein concentration: 100 nM; construct: GST-full length
In all, about 33,000 sequences were measured (“E-score (-0.5 to 0.5)”: median about -0.0059, highest 2% from about 0.26 on). Shown is part of a subset that was picked to be rich in the highest values.
parameter-measured: PBM E-score
Write the number on its own, no unit after it.

1) GCAACTCA: 0.00079
2) GAAGCAGC: -0.162
3) CTGTCTAA: -0.0712
4) AGCTGTTC: -0.0725
5) AGAAGGGC: -0.254

Identify measured PBM E-score associated with AACACTCA
0.182

Give the reported PBM E-score for this sequence. GCGGCGCC
0.115

Please give measured PBM E-score of the following entry: AAAGGGCA
-0.174

Specify PBM E-score for AACCCCTT and stop.
-0.0504

# return recorded PBM E-score for input AAAAGGAC
0.0428

* * *

- system-tested: Cin5 (UniProt P40917)
- Sequence: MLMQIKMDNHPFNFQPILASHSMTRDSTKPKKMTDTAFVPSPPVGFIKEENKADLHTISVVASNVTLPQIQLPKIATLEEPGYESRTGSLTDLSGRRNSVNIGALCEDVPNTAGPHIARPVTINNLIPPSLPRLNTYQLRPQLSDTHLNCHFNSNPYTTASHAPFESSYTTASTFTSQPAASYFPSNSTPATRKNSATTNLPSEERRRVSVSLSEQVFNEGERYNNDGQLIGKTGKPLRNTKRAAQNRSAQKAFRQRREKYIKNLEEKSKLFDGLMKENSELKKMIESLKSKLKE
- protocol-summary: PBM E-score (8-mer binding enrichment) (E-score (-0.5 to 0.5)); higher = stronger / more preferred TF binding
- applied-conditions: protein concentration: 100 nM; construct: GST-full length
Over roughly 33,000 sequences, “E-score (-0.5 to 0.5)” has its median near -0.0059; the highest 2% begin near 0.26. This excerpt belongs to a sample that is enriched for the highest values.
parameter-measured: PBM E-score
Answer using only a numeral; do not append any unit.

1) CACGTTGA: -0.095

Next item in the queue.
Provide Cin5 (UniProt P40917) PBM E-score reading for GCAAGGGC .
-0.235

* * *

Entries and their measured PBM E-score follow.
- system-tested: Cin5 (UniProt P40917)
- Sequence: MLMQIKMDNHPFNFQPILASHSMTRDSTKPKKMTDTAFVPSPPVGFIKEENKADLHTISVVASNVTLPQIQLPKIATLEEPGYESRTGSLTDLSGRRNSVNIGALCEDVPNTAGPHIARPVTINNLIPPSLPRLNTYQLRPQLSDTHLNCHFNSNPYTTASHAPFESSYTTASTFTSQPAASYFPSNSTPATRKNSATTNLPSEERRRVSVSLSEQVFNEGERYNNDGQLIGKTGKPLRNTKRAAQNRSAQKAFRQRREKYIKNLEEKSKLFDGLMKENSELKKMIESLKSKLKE
- protocol-summary: PBM E-score (8-mer binding enrichment) (E-score (-0.5 to 0.5)); higher = stronger / more preferred TF binding
- applied-conditions: protein concentration: 100 nM; construct: GST-full length
Over roughly 33,000 sequences, “E-score (-0.5 to 0.5)” has its median near -0.0059; the highest 2% begin near 0.26. This excerpt belongs to a sample that is enriched for the highest values.
Please state the value as a number alone, without comment.

1) ACTTCGCC: 0.0471
2) ATTTGATC: 0.0618
3) CTATGATC: -0.0495
4) ATTTGATA: 0.319
5) TCACCTAA: 0.142

Note down PBM E-score recorded for GTATGAGA
0.144

Answer with reported PBM E-score of ATATGATG
0.158

Query PBM E-score for GGTGGGAC
-0.313

Consider the sequence GTATGATA . State its measured PBM E-score.
0.275

Using the record for ACGCTTAT , state its measured PBM E-score.
0.101

Answer with the recorded PBM E-score of ACATGATA only.
0.187

Provide only the value of recorded PBM E-score for CTTTGATA
0.116

Complete the entry with PBM E-score for GCACTTAC
0.112

Supply PBM E-score value. Item: CGATGACA
0.0915

Return the recorded PBM E-score value; entry: GGACGTCA
0.0529

Supply reported PBM E-score belonging to this sequence: GACTCCAA
-0.226

Please look at this sequence and report its PBM E-score: AGTCAACT
-0.157

Recorded values, source the supplement of paper PMC3334620.
